# merged literature set: pIC50 with Gastrin/cholecystokinin type B receptor (Rattus norvegicus, UniProt P30553)
test target: Gastrin/cholecystokinin type B receptor (Rattus norvegicus, UniProt P30553)
Sequence (P30553 whole entry): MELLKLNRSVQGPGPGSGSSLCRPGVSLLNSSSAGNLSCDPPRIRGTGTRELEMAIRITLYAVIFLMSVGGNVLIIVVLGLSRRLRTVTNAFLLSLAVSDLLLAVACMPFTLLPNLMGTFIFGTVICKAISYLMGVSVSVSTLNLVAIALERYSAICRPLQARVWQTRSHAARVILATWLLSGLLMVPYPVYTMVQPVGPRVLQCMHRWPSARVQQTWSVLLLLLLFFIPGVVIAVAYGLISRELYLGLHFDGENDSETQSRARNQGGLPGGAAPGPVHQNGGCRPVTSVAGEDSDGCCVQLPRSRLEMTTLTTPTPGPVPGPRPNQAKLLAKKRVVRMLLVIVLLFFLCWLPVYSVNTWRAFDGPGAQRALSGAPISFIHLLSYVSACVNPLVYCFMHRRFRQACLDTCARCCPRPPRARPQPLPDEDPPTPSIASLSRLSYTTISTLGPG
pIC50: −log10 of the molar value.
quantity: pIC50

Below, each entry is followed by its recorded pIC50 result.
molecule | pIC50
CCCC[C@H](NC(=O)Cc1c[nH]c2ccccc12)C(=O)N(CCC1CCCCC1)CC(=O)N1CCC[C@H]1C(=O)O | 8.64
CCCC[C@H](NC(=O)Cc1c[nH]c2ccccc12)C(=O)N(CCc1ccccc1)CC(=O)N1CCC[C@H]1C(=O)O | 7.47
CC(C)(C)OC(=O)N1c2ccccc2C[C@@H]1C(=O)N1[C@@H](C(=O)N2Cc3ccccc3C[C@@H]2C(=O)NCC(=O)O)CC[C@H]1c1ccccc1 | 7.57

P. CCCC[C@H](NC(=O)Cc1c[nH]c2ccccc12)C(=O)N(CCc1ccccc1)CC(=O)O
Q. C[C@](Cc1c[nH]c2ccccc12)(NC(=O)OC1C2CC3CC(C2)CC1C3)C(=O)N1C[C@H](Oc2ccc(F)cc2F)C[C@@H]1C(=O)O (stereo partly specified)
*Q* // max by pIC50 over [ P , Q ] To answer, give the label that identifies your chosen option.
*A* P
(P: 6.78, Q: 6.41)

I. CCC[C@@H]1CCN(C(=O)[C@@H]2Cc3c[nH]c4cccc(c34)CC(=O)N2)[C@@H]1C(=O)N[C@@H](CC(=O)O)C(=O)N[C@@H](Cc1ccccc1)C(N)=O
II. CC(C)(C)OC(=O)N1c2ccccc2C[C@@H]1C(=O)N1[C@@H](C(=O)N2Cc3ccccc3C[C@@H]2C(=O)O)CC[C@H]1c1ccccc1
III. CCCC[C@H](NC(=O)Cc1c[nH]c2ccccc12)C(=O)N(CCc1ccccc1)CC(=O)N1CCCC1C(=O)O (stereo partly specified)
*Q* // smallest pIC50 at index 0, largest at the end # format: label list in the order the request specifies
*A* III, II, I
(III: 6.52, II: 7.41, I: 9.15)

I. CCCC[C@H](NC(=O)C(Cc1c[nH]c2ccccc12)NC(=O)CNC(=O)[C@H](CCCC)NC(=O)[C@H](Cc1ccc(OS(=O)(=O)O)cc1)NC(=O)OC(C)(C)C)C(=O)N[C@@H](CC(=O)O)C(=O)NCCc1ccccc1 (single isomer, unassigned)
II. COC(=O)[C@]1(Cc2ccccc2)C[C@@H]2[C@@H](NC(=O)[C@@H](Cc3c[nH]c4ccccc34)NC(=O)C34CC5CC(CC(C5)C3)C4)CCCN2C1=O
*Q* Of I versus II , which is the one with smaller reported pIC50? To answer, give the label that identifies your chosen option.
*A* II

----------
# merged literature set: pIC50 with Gastrin/cholecystokinin type B receptor (Rattus norvegicus, UniProt P30553)
test target: Gastrin/cholecystokinin type B receptor (Rattus norvegicus, UniProt P30553)
Sequence (P30553 whole entry): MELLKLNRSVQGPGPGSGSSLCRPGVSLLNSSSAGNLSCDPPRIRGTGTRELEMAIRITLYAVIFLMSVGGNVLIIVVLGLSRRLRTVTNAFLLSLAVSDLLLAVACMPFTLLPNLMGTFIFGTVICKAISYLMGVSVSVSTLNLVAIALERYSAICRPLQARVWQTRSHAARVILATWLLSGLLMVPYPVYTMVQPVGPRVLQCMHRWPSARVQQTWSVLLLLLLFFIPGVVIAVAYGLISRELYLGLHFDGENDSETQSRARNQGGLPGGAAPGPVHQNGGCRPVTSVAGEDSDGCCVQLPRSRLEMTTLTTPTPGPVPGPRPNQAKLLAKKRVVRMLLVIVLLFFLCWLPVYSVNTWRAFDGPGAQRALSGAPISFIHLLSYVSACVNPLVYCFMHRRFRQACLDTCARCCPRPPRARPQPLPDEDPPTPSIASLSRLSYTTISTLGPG
pIC50: −log10 of the molar value.

Below, each entry is followed by its recorded pIC50 result.
compound | pIC50
CC(C)(C)OC(=O)N[C@](C)(Cc1c[nH]c2ccccc12)C(=O)N[C@@H]1CCCN2C(=O)N(Cc3ccccc3)C(=O)C[C@@H]12.CC(C)(C)OC(=O)N[C@](C)(Cc1c[nH]c2ccccc12)C(=O)N[C@H]1CCCN2C(=O)N(Cc3ccccc3)C(=O)C[C@H]12 | < 5.00
CCCN(CCC)C(=O)C(C)c1c(-c2ccc(Cl)cc2)[nH]c2ccccc12 (stereo unspecified) | < 6.00
Cc1ccc(-c2[nH]c3ccc(C)cc3c2CC(=O)N(C)C)cc1 | < 6.00

*Q* Given the entry "COC(=O)[C@H](Cc1ccccc1)NC(=O)[C@@H]1Cc2c([nH]c3ccccc23)[C@H]2C[C@H](NC(=O)[C@H](Cc3c[nH]c4ccccc34)NC(=O)OC(C)(C)C)C(=O)N21" , what pIC50 was observed with Gastrin/cholecystokinin type B receptor (Rattus norvegicus, UniProt P30553)?
*A* < 5.00

*Q* Can you handle "O=C(Cc1c[nH]c2ccccc12)N[C@@H](CCc1ccccc1)C(=O)N(CCC1CCCCC1)CC(=O)N1CCC[C@H]1C(=O)O" next?
*A* 7.77

*Q* Can you handle "CC(C)(C)OC(=O)N[C@H](Cc1c[nH]c2ccccc12)C(=O)N[C@H]1CC[C@@H]2SC[C@@H](C(=O)N[C@H](Cc3ccccc3)C(N)=O)N2C1=O" next?
*A* < 5.00

*Q* Can you handle CC(C)(C)OC(=O)N[C@@](C)(Cc1c[nH]c2ccccc12)C(=O)N[C@@H]1CCCN2C(=O)N(Cc3ccccc3)C(=O)C[C@@H]12.CC(C)(C)OC(=O)N[C@@](C)(Cc1c[nH]c2ccccc12)C(=O)N[C@H]1CCCN2C(=O)N(Cc3ccccc3)C(=O)C[C@H]12 (single isomer, unassigned) next?
*A* < 5.00

*Q* Can you handle "COC(=O)[C@]1(Cc2ccccc2)C[C@H]2[C@H](NC(=O)[C@H](Cc3c[nH]c4ccccc34)NC(=O)OC(C)(C)C)CCCN2C1=O" next?
*A* < 5.00

*Q* Can you handle "CCN(CC)C(=O)Cc1c(-c2ccccc2)[nH]c2ccccc12" next?
*A* < 6.00

*Q* Can you handle "CC(C)(C)OC(=O)N[C@H](Cc1c[nH]c2ccccc12)C(=O)N[C@@H]1C[C@H]2c3[nH]c4ccccc4c3C[C@H](C(=O)N[C@H](Cc3ccccc3)C(N)=O)N2C1=O" next?
*A* < 5.00

*Q* Can you handle "CC(C)(C)OC(=O)N[C@@H](Cc1c[nH]c2ccccc12)C(=O)N[C@H]1C[C@@H]2c3[nH]c4ccccc4c3C[C@@H](C(=O)N[C@@H](Cc3ccccc3)C(N)=O)N2C1=O" next?
*A* < 5.00

*Q* Can you handle "N[C@@H](Cc1c[nH]c2ccccc12)C(=O)N[C@@H]1CCCN2C(=O)N(Cc3ccccc3)C(=O)C[C@H]12" next?
*A* < 5.00

*Q* Can you handle "N[C@@H](Cc1c[nH]c2ccccc12)C(=O)N[C@H]1CCCN2C(=O)N(Cc3ccccc3)C(=O)C[C@@H]12" next?
*A* < 5.00

*Q* Can you handle "CCCN(CCC)C(=O)Cc1c(-c2ccc(C)cc2)[nH]c2ccc(C)cc12" next?
*A* < 6.00

*Q* Can you handle "CCCCCCN(CCCCCC)C(=O)Cc1c2n(c3ccccc13)Cc1ccccc1-2" next?
*A* < 6.00

*Q* Can you handle "CCCN(CCC)C(=O)Cc1c(-c2ccc(F)cc2)[nH]c2ccccc12" next?
*A* < 6.00
